Tested on: tet operator sequence
Assay: β-galactosidase activity of a tetracycline-regulated promoter in transformed E. coli with revTetR, in the presence and absence of anhydrotetracycline (atc)
Type: cell-based, Escherichia coli
Conditions: RevTetR isolate cultured in the presence of anhydrotetracycline (ATC)
Experimental Endpoint: β-Galactosidase Activity, Cultured With ATC
No unit in the answer, please; the number alone is enough.

Tell me the measured β-Galactosidase Activity, Cultured With ATC of TetRrevAF5/3: revTetR(BD) E15G N18K R94H G96G G102V (protein, Modified tetracycline repressor, revTetR(BD) E15G N18K R94H G96G G102V) MSRLDKSKVINSALGLLKEVGIEGLTTRKLAQKLGVEQPTLYWHVKNKRALLDALAVEILARHHDYSLPAAGESWQSFLRNNAMSFRRALLRYHDGAKVHLVTRPDEKQYDTVETQLRFMTENGFSLRDGLYAISAVSHFTLGAVLEQQEHTAALTDRPAAPDENLPPLLREALQIMDSDDGEQAFLHGLESLIRGFEVQLTALLQIV , please. 1.8337

Attribution: patent US20030186281A1
